- EXPERIMENT SUMMARY: chemical genetic growth profiling, strain panel (AID 1159580);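 also: tested at 20 µM; growth read once vehicle control cultures reached saturation at 30 °C; 1 = growth at the plate median or of vehicle wells; lower values mean less growth of the strain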
- MEASUREMENT CONDITIONS: S. cerevisiae deletion strains, growth OD, locus YMR277W, strain FCP1
The campaign covered roughly 5,500 compounds. About 2,000 (36%) were called active. Another 18% or so got no clear call; they are omitted. Rule as the data show it: active = normalized growth mostly below about 0.91 (no sharp cut-off); inconclusive = no clear call, values can overlap the other calls; inactive = mostly above about 0.92. Some of the results follow.
Could you please pick one outcome from this set? active, inactive

(Q) What outcome does the record of this test show for CSC1=NNC(c2nn(C)cc2Cl)S1 (centres undefined) ?
(A) active

(Q) What outcome does the record of this test show for COc1ccc(NNC(=O)c2sc3ccccc3c2Cl)cc1 ?
(A) inactive

(Q) What outcome does the record of this test show for N#CC(C#N)=C(SCc1c(Cl)cccc1Cl)SCc1c(Cl)cccc1Cl ?
(A) inactive

(Q) What outcome does the record of this test show for COc1cc2c(cc1OC)C(C)N(C(=O)c1sc3ccccc3c1Cl)CC2 (centres undefined) ?
(A) inactive

====

Task for the reader: assign each of the following molecules its reported normalized growth.
- EXPERIMENT SUMMARY: chemical genetic growth profiling, strain panel (AID 1159580);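 also: tested at 20 µM; growth read once vehicle control cultures reached saturation at 30 °C; 1 = growth at the plate median or of vehicle wells; lower values mean less growth of the strain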
- MEASUREMENT CONDITIONS: S. cerevisiae deletion strains, growth OD, locus YMR263W, strain SAP30, hits give low values
Among all 5,500 compounds or so, about 2,000 (36%) were called active. Roughly 18% stayed inconclusive and do not appear here. The list shows a part of the results.
When you answer, write just the number.

Form field normalized growth, entry Cc1cccc(C)c1OCC(C)N (stereo not given) : 0.993

Form field normalized growth, entry CC(C)(C)c1ccc(NC(=O)Cc2cc(F)cc(F)c2)cc1 : 1

Form field normalized growth, entry COc1ccc(C2=C(C(C)=O)C(C)=NC(=S)C2C#N)cc1 (stereo not given) : 0.905

Form field normalized growth, entry C[C@H]1OC(n2cc(F)c(=O)[nH]c2=O)C(O)[C@@H]1O (stereo not given in full) : 1.02

Form field normalized growth, entry CCOC(=O)C(=CNc1ccccc1N1CCOCC1)C(=O)OCC : 0.968

Form field normalized growth, entry C[N+](C)(C)CCOC(=O)CCC(=O)OCC[N+](C)(C)C : 1

Form field normalized growth, entry COc1cccc(OC)c1C(C)(O)C(OC)OC (stereo not given) : 0.941

Form field normalized growth, entry COc1cc(C(F)(F)F)cc(C(F)(F)F)c1C(=O)Nc1cc(C(F)(F)F)cc(C(F)(F)F)c1 : 1.01

Form field normalized growth, entry CCOC(=O)CSC(=S)NCc1ccc(C)cc1 : 0.853

Form field normalized growth, entry OCC(O)C(O)C(O)CO (stereo not given) : 1.01

Form field normalized growth, entry CCCCNc1cc(C(=O)O)cc(S(N)(=O)=O)c1Oc1ccccc1 : 0.997

Form field normalized growth, entry CC[C@H]1OC(=O)[C@H](C)[C@@H](O[C@H]2C[C@@](C)(OC)[C@@H](O)[C@H](C)O2)[C@H](C)[C@@H](O[C@@H]2O[C@H](C)C[C@H](N(C)C)[C@H]2O)[C@](C)(O)C[C@@H](C)CN(C)[C@H](C)[C@@H](O)[C@]1(C)O : 1

Form field normalized growth, entry CCOC(=O)CCC(=O)O[C@H]1[C@H](O[C@@H]2[C@@H](C)[C@H](O[C@H]3C[C@@](C)(OC)[C@@H](O)[C@H](C)O3)[C@@H](C)C(=O)O[C@H](CC)[C@@](C)(O)[C@H](O)[C@@H](C)C(=O)[C@H](C)C[C@@]2(C)O)O[C@H](C)C[C@@H]1N(C)C : 0.984

Form field normalized growth, entry O=S(=O)(Nc1cccc2cccnc12)c1cc(Cl)c(Cl)cc1Cl : 0.853

Form field normalized growth, entry CCOC(=O)C(=CNNC(=O)c1ccccc1-n1cccc1)C(=O)OCC : 1

Form field normalized growth, entry CNCCc1ccccn1 : 1.03

Form field normalized growth, entry CNC(=O)[C@H]1O[C@@H](n2cnc3c(N)ncnc32)C(O)[C@H]1O (stereo not given in full) : 0.985

Form field normalized growth, entry CCCCCCCCCCCCCCCC[N+](C)(C)C : 0.0582

Form field normalized growth, entry CCC(=O)Nc1cc(F)ccc1C : 0.996

Form field normalized growth, entry COC1=CC(=O)C[C@@H](C)[C@]12Oc1c(Cl)c(OC)cc(OC)c1C2=O : 1.01

Data origin: PubChem BioAssay AID1159580
